Test: Fluorescence of modified Rhodamine dyes (spectrometry and spectrofluorometry)
Format: physicochemical
Details: Test Conc. 1 μM, MeOH
The entries below are paired with their reported Peak Emission Wavelength.
outcome measure: Peak Emission Wavelength (nm)

compound="CCCCCCCCOC(=O)Nc1ccc2c(c1)Oc1cc(N)ccc1C21OC(=O)c2ccccc21 (centres unmarked) [N-Octyloxycarbonyl-Rhodamine 110]" readout_units=nm recorded_result=520
compound="CCCCCCSC(=O)Nc1ccc2c(c1)Oc1cc(N)ccc1C21OC(=O)c2ccccc21 (centres unmarked) [N-(Hexylthio)carbonyl-Rhodamine 110]" readout_units=nm recorded_result=530
compound="CCCCCCCCCCCCOC(=O)Nc1ccc2c(c1)Oc1cc(N)ccc1C21OC(=O)c2ccccc21 (centres unmarked) [N-Dodecyloxycarbonyl-Rhodamine 110, N-Dodecyloxycarbonyl-Rhodamine-110]" readout_units=nm recorded_result=520
compound="CCCCCCCCCCOC(=O)Nc1ccc2c(c1)Oc1cc(N)ccc1C21OC(=O)c2ccccc21 (centres unmarked) [N-Decyloxycarbonyl-Rhodamine 110, N-Decyloxycarbonyl-Rhodamine-110]" readout_units=nm recorded_result=520
compound="CCCCCCCCSC(=O)Nc1ccc2c(c1)Oc1cc(N)ccc1C21OC(=O)c2ccccc21 (centres unmarked) [N-(Octylthio)carbonyl-Rhodamine 110, N-(Octylthio)carbonyl Rhodamine 110]" readout_units=nm recorded_result=520
